system: A549; assay: NCI tumour cell line growth inhibition, 48 h
Calls of active or inactive are those of the source. No stated cut-off is given here; in the data, active = GI50 up to about 1.1 µM and inactive = higher.
quantity_name: GI50

Ask: # GI50 lookup, item CC(SC(=S)N(C)C)C(=O)Nc1nnc(-c2ccc(Cl)cc2)o1 (stereo not given)
Result: 33.3 µM (inactive)

Ask: # GI50 lookup, item CCOP(=O)(OCC)/C(C#N)=C/c1cn(C)cn1
Result: > 100 µM (inactive)

Ask: # GI50 lookup, item CCCCCCCCCCCCCC[C@@H](O)[C@H]1CC[C@H]([C@H]2CC[C@H]([C@H](O)CCCCCC[C@@H](O)CC3=C[C@H](C)OC3=O)O2)O1
Result: > 25 µM (inactive)

Ask: # GI50 lookup, item CCOC(=O)c1c[nH]c2c(ccc3nn(C)nc32)c1=O
Result: 34 µM (inactive)

Ask: # GI50 lookup, item COC(C/C(=C/CO[Si](C(C)C)(C(C)C)C(C)C)C(=O)Nc1ccccc1I)OC
Result: 22.9 µM (inactive)

Sourced from ChEMBL document CHEMBL1201862
